assaySystem: T1, human sortilin stably expressed on HEK 293 cells (HEK-SORT1 cells) (human, UniProt Q99523 78-831)
T1 sequence (looked up): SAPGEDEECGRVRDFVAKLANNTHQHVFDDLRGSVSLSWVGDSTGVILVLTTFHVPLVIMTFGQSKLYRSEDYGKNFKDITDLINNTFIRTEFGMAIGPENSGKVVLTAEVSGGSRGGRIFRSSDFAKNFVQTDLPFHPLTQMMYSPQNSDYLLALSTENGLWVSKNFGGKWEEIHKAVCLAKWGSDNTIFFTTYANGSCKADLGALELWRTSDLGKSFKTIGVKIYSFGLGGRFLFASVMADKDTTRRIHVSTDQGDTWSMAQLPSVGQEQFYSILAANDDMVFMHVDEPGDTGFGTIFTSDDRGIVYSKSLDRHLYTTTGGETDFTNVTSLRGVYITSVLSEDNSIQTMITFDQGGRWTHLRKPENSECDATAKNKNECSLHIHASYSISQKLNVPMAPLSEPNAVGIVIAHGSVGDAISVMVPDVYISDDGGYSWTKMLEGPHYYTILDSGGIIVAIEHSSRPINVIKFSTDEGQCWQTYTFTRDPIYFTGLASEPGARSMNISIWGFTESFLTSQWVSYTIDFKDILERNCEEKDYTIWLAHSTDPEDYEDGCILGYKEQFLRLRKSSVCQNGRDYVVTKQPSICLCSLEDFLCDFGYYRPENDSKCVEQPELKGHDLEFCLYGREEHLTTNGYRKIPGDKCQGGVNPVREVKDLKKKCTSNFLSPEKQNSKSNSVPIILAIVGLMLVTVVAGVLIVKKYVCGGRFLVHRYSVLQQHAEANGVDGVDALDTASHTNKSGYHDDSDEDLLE
assayDetails: cell-based or functional assay
Ends that are not written are not given here.
Would you kindly list Mean Fluorescence Intensity (MFI), uptake 37C-4C, at 260 nM for each of these binders?
Numbers only, in MFI.

Some solved cases for reference:
1) KAGSIKPPPAGSSPGLYENKPRRPYIL (not fully specified (residue 1); also: X side chain clicked via BCN (triazole) and 6-aminohexanol linker to 5' end of oligonucleotide CCAGGCTGGTTATGACTCAG (MOE, 3'-Cy3)) | 1530
2) KPPPAGSSPGLYENKPRRPYIL (not fully specified (residue 1); also: X side chain clicked via BCN (triazole) and 6-aminohexanol linker to 5' end of oligonucleotide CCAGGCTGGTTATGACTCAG (MOE, 3'-Cy3)) | 937

For the next question, use this binder.
So for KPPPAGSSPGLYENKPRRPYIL (not fully specified (residue 1); also: Cy3 label attached by BCN click to the azide) [Compound 17-AH-1492, Cy3-labeled extended neurotensin (eNT, …)] , the logged Mean Fluorescence Intensity (MFI), uptake 37C-4C, at 260 nM turned out to be 869

These measurements were taken from patent US20230338555A1.
